Can you tell me self-splicing fitness (ln) for the items I'm about to list?
experimental_details: self-splicing fitness, log relative to wild type (ln ratio); higher = more splicing; Tetrahymena group I intron in knt gene, E. coli kanamycin selection, DiMSum; sequences stand for … in CUCUCU…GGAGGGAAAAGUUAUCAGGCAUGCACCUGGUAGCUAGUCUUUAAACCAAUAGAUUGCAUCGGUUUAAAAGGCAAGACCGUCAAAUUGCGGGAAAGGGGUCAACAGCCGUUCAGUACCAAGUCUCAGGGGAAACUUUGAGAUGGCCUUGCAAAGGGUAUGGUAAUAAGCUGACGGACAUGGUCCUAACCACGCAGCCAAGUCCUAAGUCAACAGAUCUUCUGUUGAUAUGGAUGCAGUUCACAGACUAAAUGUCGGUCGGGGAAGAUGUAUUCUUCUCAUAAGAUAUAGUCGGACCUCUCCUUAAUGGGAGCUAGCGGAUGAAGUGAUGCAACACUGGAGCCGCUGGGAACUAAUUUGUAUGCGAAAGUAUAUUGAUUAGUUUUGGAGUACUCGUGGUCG;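 also: selection with 25 µg/mL kanamycin versus none on LB agar overnight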
condition_label: 30 °C
// return just the number, without any unit appended

Query block: # get_value(readout='self-splicing fitness (ln)', item= "UGACAGCAAUAUUACGCGUU" )
Result block: -3.69

Query block: # get_value(readout='self-splicing fitness (ln)', item= "CAAAAGCAAUAUUACGCUUU" )
Result block: -3.96

Query block: # get_value(readout='self-splicing fitness (ln)', item= "CAAAAGCAAUAUUACGUUCU" )
Result block: -1.3

Query block: # get_value(readout='self-splicing fitness (ln)', item= "UGAAAGCAAUAUUACGUAGC" )
Result block: -3.52

Query block: # get_value(readout='self-splicing fitness (ln)', item= "GCCCAGCAAUAUUACGGAUC" )
Result block: -0.448

Query block: # get_value(readout='self-splicing fitness (ln)', item= "CGUGAGCAAUAUUACGGGGC" )
Result block: -3.54

Query block: # get_value(readout='self-splicing fitness (ln)', item= "UCACAGCAAUAUUACGAGUC" )
Result block: -2.97

Query block: # get_value(readout='self-splicing fitness (ln)', item= "CGGUAGCAAUAUUACGGGAA" )
Result block: -3.45

Query block: # get_value(readout='self-splicing fitness (ln)', item= "CUCAAGCAAUAUUACGUCAG" )
Result block: -1.5

Query block: # get_value(readout='self-splicing fitness (ln)', item= "CUGUAGCAAUAUUACGUAGA" )
Result block: -2.66

Query block: # get_value(readout='self-splicing fitness (ln)', item= "UAAUAGCAAUAUUACGAUAC" )
Result block: -3.78

Query block: # get_value(readout='self-splicing fitness (ln)', item= "UGGCAGCAAUAUUACGAGUG" )
Result block: -1.19

Query block: # get_value(readout='self-splicing fitness (ln)', item= "ACGAAGCAAUAUUACGCUCG" )
Result block: -1.53

Query block: # get_value(readout='self-splicing fitness (ln)', item= "AAAAAGCAAUAUUACGUUGC" )
Result block: -3.56

Query block: # get_value(readout='self-splicing fitness (ln)', item= "AAUAAGCAAUAUUACGUACG" )
Result block: -0.966

Query block: # get_value(readout='self-splicing fitness (ln)', item= "CUAGAGCAAUAUUACGCACU" )
Result block: -4.52

Query block: # get_value(readout='self-splicing fitness (ln)', item= "GGUGAGCAAUAUUACGGUAC" )
Result block: -1.95

Query block: # get_value(readout='self-splicing fitness (ln)', item= "GGAAAGCAAUAUUACGAACC" )
Result block: -3.32

Query block: # get_value(readout='self-splicing fitness (ln)', item= "GUCGAGCAAUAUUACGCCAA" )
Result block: -2.68

Query block: # get_value(readout='self-splicing fitness (ln)', item= "UUUAAGCAAUAUUACGGCAU" )
Result block: -1.59

Query block: # get_value(readout='self-splicing fitness (ln)', item= "ACUCAGCAAUAUUACGAAUA" )
Result block: -1.99

Query block: # get_value(readout='self-splicing fitness (ln)', item= "GUAUAGCAAUAUUACGGACC" )
Result block: -1.89

Query block: # get_value(readout='self-splicing fitness (ln)', item= "GGGAAGCAAUAUUACGAUUA" )
Result block: -1.56

Query block: # get_value(readout='self-splicing fitness (ln)', item= "UAGCAGCAAUAUUACGUCGC" )
Result block: -4.47

Query block: # get_value(readout='self-splicing fitness (ln)', item= "GGUAAGCAAUAUUACGGCAA" )
Result block: -0.143

Query block: # get_value(readout='self-splicing fitness (ln)', item= "CUUUAGCAAUAUUACGUGUU" )
Result block: -3.49

Query block: # get_value(readout='self-splicing fitness (ln)', item= "UCAAAGCAAUAUUACGGACG" )
Result block: -1.16

Query block: # get_value(readout='self-splicing fitness (ln)', item= "GCUCAGCAAUAUUACGCCAA" )
Result block: -1.52

Query block: # get_value(readout='self-splicing fitness (ln)', item= "CCAUAGCAAUAUUACGGGCG" )
Result block: -1.02

Query block: # get_value(readout='self-splicing fitness (ln)', item= "CCUAAGCAAUAUUACGGGGG" )
Result block: -3.51

Query block: # get_value(readout='self-splicing fitness (ln)', item= "ACCGAGCAAUAUUACGGCUC" )
Result block: -4.07

Query block: # get_value(readout='self-splicing fitness (ln)', item= "UACCAGCAAUAUUACGCAGG" )
Result block: -3.68

Query block: # get_value(readout='self-splicing fitness (ln)', item= "AAGUAGCAAUAUUACGCACA" )
Result block: -0.522

Query block: # get_value(readout='self-splicing fitness (ln)', item= "UUGUAGCAAUAUUACGGCGA" )
Result block: 0.174
